reported.property: melting point

q: # get_value(readout='melting point', item= CCOc1nn(Cc2ccc(OCc3cccnc3)cc2)cc1CCC(=O)O )
a: 120 to 121 °C

q: // query: NC(=O)c1nc(-c2cccc(O)c2)nc2c1[nH]c(=O)n2-c1ccc(C(F)(F)F)cc1
a: 360 to 364 °C

q: Queued: CN(C)c1ccc(S(=O)c2ccccc2)cc1N (stereo not given)
a: 85 to 86 °C

q: Again, but for CCCC(Cn1cncn1)(OCC)c1ccc(Cl)cc1Cl (stereo not given)
a: 67 °C

q: What do you get for CC(=O)N1CCC(CCC(=O)c2cc3c4c(c2)CCN4C(=O)CC3)CC1 ?
a: 157 to 159 °C
